log10(Kd) listing for selected compounds.
- test_system: Glutamate NMDA receptor
- assay_remarks: Compound was tested for agonistic activity at the N-methyl-D-aspartate glutamate receptor obtained from the rat cortical wedge preparation
- condition_label: read-out: KD app
Scale: log10; quantity: Kd; unit before log: µM

Solved cases (5 shown):
O=C(O)CC1=C(c2ccc3ccccc3c2)CN[C@@H]1C(=O)O :: 2.40
O=C(O)CC1=C(c2ccsc2)CN[C@@H]1C(=O)O :: 1.65
O=C(O)CC1=C(c2ccco2)CN[C@@H]1C(=O)O :: 1.85
COc1ccccc1C1=C(CC(=O)O)[C@@H](C(=O)O)NC1 :: 2.58
O=C(O)CC1=C(c2ccoc2)CN[C@@H]1C(=O)O :: 1.93

Sample O=C(O)CC1=C(c2cccs2)CN[C@@H]1C(=O)O ; log10(Kd) observed: 1.30

Sample O=C(O)CC1=C(c2ccccc2)CN[C@@H]1C(=O)O ; log10(Kd) observed: 2.75
